Each record here notes measured pIC50.
Test system: HeLa-MaTu-ADR cells
Test: Proliferation assay HeLa-MaTu-ADR (Method 3)
Format: cell-based, human
Conditions: Homo sapiens, 96 h, 4 days, crystal violet, read-out: Inhibition of HeLa-MaTu-ADR cell proliferation IC50
pIC50: −log10 of the molar value.
PARAMETER: pIC50

In [3]: df
Out[3]:
                                   molecule  experimental_value
0  CS(=N)(=O)Cc1cc(Nc2ncc(F)c(-c3ccc(F)c4ccoc34)n2)cc(S(F)(F)(F)(F)F)c1 (racemic)                6.94
1  CS(=O)(Cc1cc(F)cc(Nc2ncc(F)c(-c3ccc(F)c4ccoc34)n2)c1)=NC#N (single isomer, unassigned) [Example 8]                7.46
2  Cc1cc(CS(C)(=N)=O)cc(Nc2ncc(F)c(-c3ccc(F)c4ccoc34)n2)c1 (racemic)                7.39
3  CS(=O)(Cc1cc(Nc2ncc(F)c(-c3ccc(F)c4ccoc34)n2)cc(S(F)(F)(F)(F)F)c1)=NC#N (racemic)                7.01

* * *

Each record here notes measured pIC50.
Test system: HeLa-MaTu-ADR cells
Assay: Proliferation assay HeLa-MaTu-ADR (Method 3)
Format: cell-based, human
Details: Homo sapiens, 96 h, 4 days, crystal violet, read-out: Inhibition of HeLa-MaTu-ADR cell proliferation IC50
pIC50: −log10 of the molar value.
PARAMETER: pIC50

>>> df
                                   compound  experimental_value
0  Cc1cc(CS(C)(=O)=NC#N)cc(Nc2ncc(F)c(-c3ccc(F)c4ccoc34)n2)c1 (single isomer, unassigned) [Example 14]                7.24
1  CS(=N)(=O)Cc1cccc(Nc2ncc(F)c(-c3ccc(F)c4ccoc34)n2)c1 (single isomer, unassigned) [Example 5]                6.72
2  Cc1cc(CS(C)(=O)=NC#N)cc(Nc2ncc(F)c(-c3ccc(F)c4ccoc34)n2)c1 (racemic) [Example 13]                7.43
3  CS(=O)(Cc1cccc(Nc2ncc(F)c(-c3ccc(F)c4ccoc34)n2)c1)=NC#N (racemic) [Example 1]                6.87
4  CS(=O)(Cc1cccc(Nc2ncc(F)c(-c3ccc(F)c4ccoc34)n2)c1)=NC#N (single isomer, unassigned) [Example 3]                6.93
5  CS(=O)(Cc1cc(F)cc(Nc2ncc(F)c(-c3ccc(F)c4ccoc34)n2)c1)=NC#N (racemic) [Example 7]                7.22
6  CS(=N)(=O)Cc1cccc(Nc2ncc(F)c(-c3ccc(F)c4ccoc34)n2)c1 (racemic) [Example 4]                6.84

* * *

Tested on: HeLa cells
Assay: Proliferation assay HeLa (Method 3)
Type: cell-based, human
Details: Homo sapiens, 96 h, 4 days, crystal violet, read-out: Inhibition of HeLa cell proliferation IC50
Description: […]
PARAMETER: IC50 (nM)

                                    compound  parameter  experimental_value
 0  CS(=N)(=O)Cc1cccc(Nc2ncc(F)c(-c3ccc(F)c4ccoc34)n2)c1 (racemic) [Example 4]       IC50                 297
 1  Cc1cc(CS(C)(=N)=O)cc(Nc2ncc(F)c(-c3ccc(F)c4ccoc34)n2)c1 (racemic)       IC50                  46
 2  CS(=N)(=O)Cc1cccc(Nc2ncc(F)c(-c3ccc(F)c4ccoc34)n2)c1 (single isomer, unassigned) [Example 5]       IC50                 177
 3  CS(=O)(Cc1cc(Nc2ncc(F)c(-c3ccc(F)c4ccoc34)n2)cc(S(F)(F)(F)(F)F)c1)=NC#N (racemic)       IC50                  99
 4  CS(=N)(=O)Cc1cc(Nc2ncc(F)c(-c3ccc(F)c4ccoc34)n2)cc(S(F)(F)(F)(F)F)c1 (racemic)       IC50                 101
 5  CS(=O)(Cc1cc(F)cc(Nc2ncc(F)c(-c3ccc(F)c4ccoc34)n2)c1)=NC#N (racemic)       IC50                  50
 6  Cc1cc(CS(C)(=O)=NC#N)cc(Nc2ncc(F)c(-c3ccc(F)c4ccoc34)n2)c1 (racemic) [Example 13]       IC50                  40
 7  CS(=O)(Cc1cccc(Nc2ncc(F)c(-c3ccc(F)c4ccoc34)n2)c1)=NC#N (single isomer, unassigned) [Example 3]       IC50                 109
 8  CS(=O)(Cc1cccc(Nc2ncc(F)c(-c3ccc(F)c4ccoc34)n2)c1)=NC#N (racemic) [Example 1]       IC50                 104
 9  Cc1cc(CS(C)(=O)=NC#N)cc(Nc2ncc(F)c(-c3ccc(F)c4ccoc34)n2)c1 (single isomer, unassigned) [Example 14]       IC50                  96
10  CS(=N)(=O)Cc1cc(F)cc(Nc2ncc(F)c(-c3ccc(F)c4ccoc34)n2)c1 (racemic) [Example 10]       IC50                  97
11  CS(=N)(=O)Cc1cc(F)cc(Nc2ncc(F)c(-c3ccc(F)c4ccoc34)n2)c1 (single isomer, unassigned) [Example 11]       IC50                  31

* * *

Assay: Caco-2 permeation assay (Method 4)
Format: in vitro ADME
Details: human, Caco-2; 2 μM test compound, 2 h incubation, pH 7.2; read-out: Papp A-B (Mari)
Overview of recorded Papp A→B at 2 h, 2 μM for various molecules
PARAMETER: Papp A→B at 2 h, 2 μM (×10⁻⁶ cm/s)

                                   molecule              parameter  experimental_value
0  CS(=N)(=O)Cc1cccc(Nc2ncc(F)c(-c3ccc(F)c4ccoc34)n2)c1 (single isomer, unassigned) [Example 6]  Papp A→B at 2 h, 2 μM                22.1
1  CS(=N)(=O)Cc1cccc(Nc2ncc(F)c(-c3ccc(F)c4ccoc34)n2)c1 (racemic) [Example 4]  Papp A→B at 2 h, 2 μM                18.3

* * *

Below, each entry is listed alongside its reported IC50.
Tested on: HeLa-MaTu-ADR cells
Assay: Proliferation assay HeLa-MaTu-ADR (Method 3)
Format: cell-based, human
Conditions: 4 days, crystal violet, read-out: Inhibition of HeLa-MaTu-ADR cell proliferation IC50
PARAMETER: IC50 (µM)

>>> print(df.to_string())
                                   compound  experimental_value
0  CS(=N)(=O)Cc1cccc(Nc2ncc(F)c(-c3ccc(F)c4ccoc34)n2)c1 (single isomer, unassigned) [Example 6]               0.096
1  CS(=O)(Cc1cc(F)cc(Nc2ncc(F)c(-c3ccc(F)c4ccoc34)n2)c1)=NC#N (single isomer, unassigned) [Example 9]               0.042
2  CS(=N)(=O)Cc1cc(F)cc(Nc2ncc(F)c(-c3ccc(F)c4ccoc34)n2)c1 (single isomer, unassigned) [Example 12]               0.088

* * *

Molecular target: CDK9/CycT1 (Homo sapiens)
Construct: Recombinant full-length His-tagged human CDK9 and CycT1; His; purchased Invitrogen PV4131; host or cells: insect cells
Sequence (P50750 whole entry): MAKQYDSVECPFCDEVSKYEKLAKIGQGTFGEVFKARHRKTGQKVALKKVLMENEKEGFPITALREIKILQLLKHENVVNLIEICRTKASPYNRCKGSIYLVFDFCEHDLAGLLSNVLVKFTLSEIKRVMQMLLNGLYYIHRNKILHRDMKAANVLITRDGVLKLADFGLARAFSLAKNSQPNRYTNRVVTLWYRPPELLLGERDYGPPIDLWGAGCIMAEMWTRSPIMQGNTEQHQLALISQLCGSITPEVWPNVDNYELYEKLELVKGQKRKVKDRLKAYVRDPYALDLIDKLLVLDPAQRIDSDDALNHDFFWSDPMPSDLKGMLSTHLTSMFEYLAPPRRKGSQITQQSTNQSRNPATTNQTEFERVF
Sequence (O60563 whole entry partner): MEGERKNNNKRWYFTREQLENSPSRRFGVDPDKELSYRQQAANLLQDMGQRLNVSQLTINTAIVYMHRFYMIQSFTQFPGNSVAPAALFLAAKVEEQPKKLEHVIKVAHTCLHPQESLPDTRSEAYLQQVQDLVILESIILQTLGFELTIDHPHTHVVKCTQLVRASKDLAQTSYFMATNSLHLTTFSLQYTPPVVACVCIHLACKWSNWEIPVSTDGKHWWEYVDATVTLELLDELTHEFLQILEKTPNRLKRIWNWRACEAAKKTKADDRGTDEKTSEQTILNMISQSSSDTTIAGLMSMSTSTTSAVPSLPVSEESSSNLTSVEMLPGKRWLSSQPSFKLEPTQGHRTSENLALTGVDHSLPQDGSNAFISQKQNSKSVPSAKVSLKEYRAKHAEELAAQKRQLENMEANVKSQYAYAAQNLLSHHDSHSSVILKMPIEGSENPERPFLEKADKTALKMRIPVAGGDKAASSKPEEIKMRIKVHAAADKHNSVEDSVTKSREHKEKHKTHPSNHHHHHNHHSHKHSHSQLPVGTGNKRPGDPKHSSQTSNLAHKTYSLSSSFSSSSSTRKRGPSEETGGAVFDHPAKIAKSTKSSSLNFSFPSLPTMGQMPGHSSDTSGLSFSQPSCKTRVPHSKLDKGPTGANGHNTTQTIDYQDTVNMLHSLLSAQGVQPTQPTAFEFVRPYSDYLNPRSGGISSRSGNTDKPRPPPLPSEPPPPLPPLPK
Assay: CDK9/CycT1 kinase assay (Method 1a, TR-FRET)
Assay type: biochemical
Conditions: Methods 1a. and 2a., 10 μM ATP
Where Selectivity CDK9 over CDK2: IC50 (CDK2)/IC50 (CDK9) equals or exceeds 20, the correct label is true (1); where it does not, the label is false (0).

                                   compound  assigned_category
0  CS(=N)(=O)Cc1cccc(Nc2ncc(F)c(-c3ccc(F)c4ccoc34)n2)c1 (single isomer, unassigned) [Example 6]           true (1)
1  CS(=N)(=O)Cc1cccc(Nc2ncc(F)c(-c3ccc(F)c4ccoc34)n2)c1 (single isomer, unassigned) [Example 5]           true (1)
2  CS(=N)(=O)Cc1cc(Nc2ncc(F)c(-c3ccc(F)c4ccoc34)n2)cc(S(F)(F)(F)(F)F)c1 (racemic)           true (1)
3  CS(=O)(Cc1cccc(Nc2ncc(F)c(-c3ccc(F)c4ccoc34)n2)c1)=NC#N (single isomer, unassigned) [Example 3]          false (0)
4  CS(=N)(=O)Cc1cc(F)cc(Nc2ncc(F)c(-c3ccc(F)c4ccoc34)n2)c1 (single isomer, unassigned) [Example 12]          false (0)
5  CS(=N)(=O)Cc1cc(F)cc(Nc2ncc(F)c(-c3ccc(F)c4ccoc34)n2)c1 (racemic) [Example 10]          false (0)
6  CS(=O)(Cc1cc(F)cc(Nc2ncc(F)c(-c3ccc(F)c4ccoc34)n2)c1)=NC#N (single isomer, unassigned) [Example 8]           true (1)
